# system: Human NK1 Receptor (Homo sapiens)
# Construct: endogenous in cells; host or cells: Human lymphoma IM9 cells (whole cells)
# assay.method.text: In Vitro Human NK1 Receptor Binding Assay ([125I]Bolton-Hunter substance P displacement, IM9 cells)
# measurement.context: Human lymphoma IM9 cells, [125I]Bolton-Hunter substance P; Table 3, array-synthesis products; read-out: IC50 (nM) hNK1
Measured IC50 values are reported for all entries that follow.
Express it in nM; write the number only.

// known answers, use as guide
COc1ccc(C(C)NC(=O)C(Cc2c[nH]c3ccccc23)NCc2cc3ccccc3o2)cc1 (stereo not drawn) [Example 255] :: 9
CCC(NC(=O)C(Cc1c[nH]c2ccccc12)NCc1cc2ccccc2o1)c1ccccc1 (stereo not drawn) [Example 259] :: 21

Given item O=C(NCc1cccc([N+](=O)[O-])c1)C(Cc1c[nH]c2ccccc12)NCc1cc2ccccc2o1 (stereo not drawn) [Example 260] , the value recorded as its IC50 is 14

Given item O=C(NCc1cccc(Cl)c1)C(Cc1c[nH]c2ccccc12)NCc1cc2ccccc2o1 (stereo not drawn) [Example 263] , the value recorded as its IC50 is 9

Given item O=C(NCCc1ccco1)C(Cc1c[nH]c2ccccc12)NCc1cc2ccccc2o1 (stereo not drawn) [Example 251] , the value recorded as its IC50 is 129

---

Measured IC50 values are reported for all entries that follow.
# system: Human NK1 Receptor (Homo sapiens)
# Construct: endogenous in cells; host or cells: Human lymphoma IM9 cells (whole cells)
# assay.method.text: In Vitro Human NK1 Receptor Binding Assay ([125I]Bolton-Hunter substance P displacement, IM9 cells)
# measurement.context: Human lymphoma IM9 cells, [125I]Bolton-Hunter substance P; Table 3, array-synthesis products; read-out: IC50 (nM) hNK1
Express it in nM; write the number only.

Reading of IC50 for O=C(NCc1ccncc1)C(Cc1c[nH]c2ccccc12)NCc1cc2ccccc2o1 (stereo not shown) with Human NK1 Receptor (Homo sapiens): 196

Reading of IC50 for O=C(NC1CCc2ccccc2C1)C(Cc1c[nH]c2ccccc12)NCc1cc2ccccc2o1 (stereo not shown) with Human NK1 Receptor (Homo sapiens): 3330

Reading of IC50 for O=C(NCc1ccccc1C(F)(F)F)C(Cc1c[nH]c2ccccc12)NCc1cc2ccccc2o1 (stereo not shown) with Human NK1 Receptor (Homo sapiens): 1130

---

# system: Human NK1 Receptor (Homo sapiens)
# Construct: endogenous in cells; host or cells: Human lymphoma IM9 cells (whole cells)
# assay.method.text: In Vitro Human NK1 Receptor Binding Assay ([125I]Bolton-Hunter substance P displacement, IM9 cells)
# measurement.context: Human lymphoma IM9 cells, [125I]Bolton-Hunter substance P; Table 3, array-synthesis products; read-out: IC50 (nM) hNK1
property: IC50 (nM)
Express it in nM; write the number only.

// known answers, use as guide
O=C(NCc1ccc(Cl)cc1)C(Cc1c[nH]c2ccccc12)NCc1cc2ccccc2o1 (stereo not shown) :: 46
O=C(NCc1ccccc1)C(Cc1c[nH]c2ccccc12)NCc1cc2ccccc2o1 (stereo not shown) :: 22
O=C(NCCc1c[nH]c2ccccc12)C(Cc1c[nH]c2ccccc12)NCc1cc2ccccc2o1 (stereo not shown) :: 2540

Given item O=C(NCc1ccccc1Cl)C(Cc1c[nH]c2ccccc12)NCc1cc2ccccc2o1 (stereo not shown) , the value recorded as its IC50 is 221

---

# system: Human NK1 Receptor (Homo sapiens, UniProt P25103)
# Construct: endogenous in cells; host or cells: Human lymphoma IM9 cells (whole cells)
# Sequence (P25103 whole entry): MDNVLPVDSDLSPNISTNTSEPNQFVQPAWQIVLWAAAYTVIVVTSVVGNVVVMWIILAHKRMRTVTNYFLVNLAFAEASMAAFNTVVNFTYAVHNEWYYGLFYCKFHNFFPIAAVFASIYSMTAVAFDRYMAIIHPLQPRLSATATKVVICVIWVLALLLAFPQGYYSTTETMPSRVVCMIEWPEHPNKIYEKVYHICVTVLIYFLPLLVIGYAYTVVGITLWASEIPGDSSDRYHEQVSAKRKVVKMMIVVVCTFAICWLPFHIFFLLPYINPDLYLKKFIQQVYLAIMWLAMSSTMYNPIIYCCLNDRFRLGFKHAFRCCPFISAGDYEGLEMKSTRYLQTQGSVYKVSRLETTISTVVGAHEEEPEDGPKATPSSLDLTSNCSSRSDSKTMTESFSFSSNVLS
# assay.method.text: In Vitro Human NK1 Receptor Binding Assay ([125I]Bolton-Hunter substance P displacement, IM9 cells)
# measurement.context: Human lymphoma IM9 cells, [125I]Bolton-Hunter substance P; Table 3, array-synthesis products; read-out: IC50 (nM) hNK1
Measured IC50 values are reported for all entries that follow.

// known answers, use as guide
O=C(NCCN1CCNCC1)C(Cc1c[nH]c2ccccc12)NCc1cc2ccccc2o1 (stereo not drawn) :: > 10000 nM
O=C(NCc1ccc([N+](=O)[O-])o1)C(Cc1c[nH]c2ccccc12)NCc1cc2ccccc2o1 (stereo not drawn) :: > 10000 nM

Given item O=C(NC1CCC(O)CC1)C(Cc1c[nH]c2ccccc12)NCc1cc2ccccc2o1 (stereo not drawn) , the value recorded as its IC50 is > 10000 nM
